Target: G-protein coupled receptor 35 (Homo sapiens)
Assay: inhibition of zaprinast-stimulated GPR35 beta-arrestin translocation – imaging, U2OS, beta-arrestin-GFP, zaprinast agonist, primary screen (AID 2058)
Details: zaprinast antagonism, at 10 µM, stronger effect = higher value
Hit rate of the full screen: of about 290,000 compounds, about 150 (0.052%) were called active. Shown is part of a subset that was picked to be rich in actives. Entries with a potency or affinity are not part of this list.
I'd appreciate it if you could supply inhibition values for the items below.
Numeric answer only, unit % assumed.

// recorded inhibition for "Cc1ccc(/C=C2/SC(=S)N(CCC(=O)N3CCN(c4ccccc4)CC3)C2=O)cc1" : -11.1

// recorded inhibition for "Cc1cccc(N=Cc2cc(Br)cc(Cl)c2O)c1" : -33.9

// recorded inhibition for "CSc1ccc(-c2sc(Nc3ccccc3)n[n+]2-c2ccc(F)cc2)cc1" : -7.7

// recorded inhibition for "CCn1c(Oc2ccc(F)cc2)nc2c1c(=O)n(C)c(=O)n2C" : 5.5

// recorded inhibition for "COc1ccc(C)cc1Nc1n[n+](-c2ccccc2)c(-c2ccc(C(=O)O)cc2)s1" : 7.9

// recorded inhibition for "O=C(COC(=O)Cn1cnc2ccccc2c1=O)Nc1cc(Cl)ccc1[N+](=O)[O-]" : -6.5

// recorded inhibition for "COc1ccc(/C=C2\SC(=S)N(CCC(=O)N3CCCCC3)C2=O)cc1" : 1.2

// recorded inhibition for "O=C(O)c1ccc(-c2sc(Nc3ccccc3)n[n+]2-c2ccc(F)cc2)cc1" : 0.5

// recorded inhibition for "Cc1cc(C)cc(N=Cc2[nH]c3ccc(Br)c(Cl)c3c2O)c1" : 41

// recorded inhibition for "CC(C)(C)CC(C)(C)NC(=S)Nc1ccc(S(=O)(=O)N2CCOCC2)cc1" : -2.7

----------
Molecular target: G-protein coupled receptor 35 (Homo sapiens) (UniProt Q9HC97)
Sequence (Q9HC97 whole entry, looked up): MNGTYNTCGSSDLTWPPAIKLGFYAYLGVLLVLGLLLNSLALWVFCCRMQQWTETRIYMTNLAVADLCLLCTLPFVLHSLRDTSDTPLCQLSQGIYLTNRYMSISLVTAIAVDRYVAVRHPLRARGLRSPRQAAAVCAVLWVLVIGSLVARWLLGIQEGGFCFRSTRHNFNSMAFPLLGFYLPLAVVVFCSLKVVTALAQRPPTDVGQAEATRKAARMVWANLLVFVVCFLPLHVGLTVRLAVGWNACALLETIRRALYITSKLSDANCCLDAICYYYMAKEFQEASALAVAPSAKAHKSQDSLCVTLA
Experiment: inhibition of zaprinast-stimulated GPR35 beta-arrestin translocation – imaging, U2OS, beta-arrestin-GFP, zaprinast agonist, primary screen (AID 2058)
Details: zaprinast antagonism, at 10 µM, stronger effect = higher value
The campaign covered roughly 290,000 compounds. About 150 (0.052%) were called active. The sample holds actives, similar compounds and a random draw of the others, so the mix is not that of the screen. Measured potencies and affinities stand elsewhere.
I'd appreciate it if you could supply inhibition values for the items below.

// recorded inhibition for "CC(=O)Nc1sc(/C(C#N)=C\c2cccc(Cl)c2)nc1-c1ccc(C)cc1" : 18.1% (inactive)

// recorded inhibition for "C=CCN1C=CC(=CC=C(C#N)C#N)C=C1" : 29.6% (inactive)

// recorded inhibition for "COC(=O)Cn1c(C)c(/C=C/c2cc[n+](C)cc2)c2ccccc21" : 17.9% (inactive)

// recorded inhibition for "Cc1ccc2[nH]cc(/C=C/c3cc[n+](C)cc3)c2c1" : 29.2% (inactive)

// recorded inhibition for "Cn1cc(/C=C/c2cc[n+](C)cc2)c2cc(F)ccc21" : 29.2% (inactive)

// recorded inhibition for CCC1(C)Cc2ccccc2-c2[nH][nH]c(=O)c21 (stereo not drawn) : -5.1% (inactive)

// recorded inhibition for Cc1ccc(C2(COC(=O)C(C)C)CO2)c(OC(=O)C(C)C)c1 (stereo not drawn) : 10.9% (inactive)

// recorded inhibition for "Cc1[nH]c2ccccc2c1/C=C/C(=O)c1ccccc1" : 4.5% (inactive)

// recorded inhibition for "CCCN1C=CC(=CC=C(C#N)C#N)C=C1" : 59.2% (active)

// recorded inhibition for "O=C(CSc1nnc(-c2ccc(F)cc2)o1)c1ccc2c(c1)OCCO2" : 11.5% (inactive)

// recorded inhibition for "COc1ccc(NC(=S)N(CCN2CCOCC2)Cc2cc3cc4c(cc3[nH]c2=O)OCO4)cc1" : -1.5% (inactive)

// recorded inhibition for "COc1ccc(NC(=S)N(CCN2CCOCC2)Cc2cc3cc4c(cc3[nH]c2=O)OCCO4)cc1" : 98.1% (active)

// recorded inhibition for "Cn1c(=O)cc(OCC(=O)NCCc2ccc(Cl)cc2)c2ccccc21" : 13.1% (inactive)

// recorded inhibition for "C=CCn1cc(/C=C/c2cc[n+](C)cc2)c2ccccc21" : 17.1% (inactive)

// recorded inhibition for "COC(=O)c1ccc2c(c1)C(C)(C)C(/C=C/c1ccccc1O)=[N+]2C" : 18.9% (inactive)

// recorded inhibition for Cc1cccc(Cc2cnc(N3C(=N)SC(C)C3=O)s2)c1 (stereo not drawn) : -5.2% (inactive)

// recorded inhibition for "CCOc1ccc(NC(=S)N(CCN2CCOCC2)Cc2cc3cc4c(cc3[nH]c2=O)OCCO4)cc1" : 6.4% (inactive)

// recorded inhibition for "Cc1ccc(NC(=O)c2nc[nH]c2C(=O)N[C@@H](C)c2ccccc2)cc1" : 53.8% (inactive)

// recorded inhibition for COC(=O)C1=C(C)N=C2SCCC(=O)N2C1c1cc(Br)ccc1OC (stereo not drawn) : -10.8% (inactive)

// recorded inhibition for "C[N+]1=C(/C=C/Nc2ccccc2Cl)C(C)(C)c2ccccc21" : 6.8% (inactive)

// recorded inhibition for "CN(C(=O)c1ccc2ccccc2c1)c1ccccn1" : 13.4% (inactive)

// recorded inhibition for "O=C1C=CC(=O)N1Cc1ccccc1" : 4.8% (inactive)

// recorded inhibition for "CC(C)Cn1c(N)c(C(=O)COC(=O)/C=C/c2cccs2)c(=O)n(C)c1=O" : 12.1% (inactive)

The measurements presented in this section are drawn from PubChem BioAssay AID2058.
